target-or-system: cGMP-specific 3',5'-cyclic phosphodiesterase (Homo sapiens, UniProt O76074)
measurement-name: pIC50
Would you please state pIC50, meaning minus log10 of the concentration in mol/L, as a bare number?

Recall and state the measured pIC50 for CC1=C(C(=O)OCC2CCCCC2)C(c2ccc(OC(F)F)c(OCC3CC3)c2)N(C(=O)SCc2ccccc2)C(=O)N1 (stereo unspecified) .
5.78

* * *

target-or-system: Cytochrome P450 3A4 (Homo sapiens)
Sequence (P08684 whole entry): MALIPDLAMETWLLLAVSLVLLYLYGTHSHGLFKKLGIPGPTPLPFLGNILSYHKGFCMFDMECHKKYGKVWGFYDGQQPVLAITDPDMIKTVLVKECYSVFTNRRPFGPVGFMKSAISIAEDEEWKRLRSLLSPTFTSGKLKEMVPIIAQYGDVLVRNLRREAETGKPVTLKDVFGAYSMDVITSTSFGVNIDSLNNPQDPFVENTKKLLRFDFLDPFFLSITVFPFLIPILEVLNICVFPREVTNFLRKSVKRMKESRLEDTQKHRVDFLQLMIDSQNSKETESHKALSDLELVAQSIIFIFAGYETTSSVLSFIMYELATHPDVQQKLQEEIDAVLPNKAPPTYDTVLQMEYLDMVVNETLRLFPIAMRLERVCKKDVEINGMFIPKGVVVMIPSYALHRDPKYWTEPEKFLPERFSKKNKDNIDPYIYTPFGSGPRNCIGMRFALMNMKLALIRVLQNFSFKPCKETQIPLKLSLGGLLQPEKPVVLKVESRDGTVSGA
pIC50: −log10 of the molar value.
measurement-name: pIC50

Report pIC50 under test system Cytochrome P450 3A4 (Homo sapiens) for CC1=C(C(=O)OCC2CCCCC2)C(c2ccc(OC(F)F)c(OCC3CC3)c2)N(C(=O)SCc2ccccc2)C(=O)N1 (stereo unspecified) .
< 4.60
